Target: hLRRC33-proTGFβ1 (human, UniProt Q86YC3 19-650; P01137 30-390, limits assumed)
Sequence (Q86YC3 19-650 limits assumed, chain 1 of 2): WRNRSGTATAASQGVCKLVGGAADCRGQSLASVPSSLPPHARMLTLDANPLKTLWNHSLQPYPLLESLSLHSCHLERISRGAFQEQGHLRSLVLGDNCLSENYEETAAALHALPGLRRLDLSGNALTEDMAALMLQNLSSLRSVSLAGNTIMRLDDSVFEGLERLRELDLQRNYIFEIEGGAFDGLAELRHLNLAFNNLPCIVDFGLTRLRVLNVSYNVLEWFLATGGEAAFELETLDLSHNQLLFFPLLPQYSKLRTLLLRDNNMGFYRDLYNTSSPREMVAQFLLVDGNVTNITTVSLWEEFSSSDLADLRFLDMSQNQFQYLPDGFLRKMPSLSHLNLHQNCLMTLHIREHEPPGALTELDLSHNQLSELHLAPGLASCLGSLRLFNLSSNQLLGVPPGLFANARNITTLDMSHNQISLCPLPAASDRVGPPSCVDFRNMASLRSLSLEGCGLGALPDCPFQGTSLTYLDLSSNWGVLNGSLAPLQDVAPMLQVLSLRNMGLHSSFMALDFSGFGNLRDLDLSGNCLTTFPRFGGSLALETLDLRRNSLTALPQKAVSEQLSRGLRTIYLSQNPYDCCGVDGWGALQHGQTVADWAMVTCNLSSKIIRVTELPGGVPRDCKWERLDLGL
Sequence (P01137 30-390 limits assumed, chain 2 of 2): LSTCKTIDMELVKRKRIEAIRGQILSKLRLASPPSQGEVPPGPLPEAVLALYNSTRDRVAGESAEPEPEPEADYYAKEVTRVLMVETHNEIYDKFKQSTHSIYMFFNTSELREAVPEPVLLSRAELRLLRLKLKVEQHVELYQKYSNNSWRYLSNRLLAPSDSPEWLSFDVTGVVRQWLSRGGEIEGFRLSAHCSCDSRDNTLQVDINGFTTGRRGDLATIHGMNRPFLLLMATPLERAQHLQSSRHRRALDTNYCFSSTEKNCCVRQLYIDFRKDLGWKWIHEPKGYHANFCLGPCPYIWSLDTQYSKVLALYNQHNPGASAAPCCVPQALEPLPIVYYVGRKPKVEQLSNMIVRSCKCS
Assay: cell-based or functional assay
Reported Property: IC50, reporter cell assay (nM)
Answer format: numeric, nM implied, no suffix.

Ab21 (antibody, V domains shown) VH: EVQLVESGGGLVQPGGSLRLSCAASGFTFSSFSMDWVRQAPGKGLEWVSYISPDASTIYYADSVKGRFTISRDNAKNSLYLQMNSLRAEDTAVYYCARGVLDYGDMLDPWGQGTLVTVSS VL: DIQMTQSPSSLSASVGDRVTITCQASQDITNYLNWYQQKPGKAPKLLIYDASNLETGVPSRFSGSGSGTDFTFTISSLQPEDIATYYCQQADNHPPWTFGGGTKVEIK    0.6
Ab29 (antibody, V domains shown) VH: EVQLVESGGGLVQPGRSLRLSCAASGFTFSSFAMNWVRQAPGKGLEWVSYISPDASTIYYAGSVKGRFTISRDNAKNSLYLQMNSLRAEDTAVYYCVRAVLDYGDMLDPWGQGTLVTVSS VL: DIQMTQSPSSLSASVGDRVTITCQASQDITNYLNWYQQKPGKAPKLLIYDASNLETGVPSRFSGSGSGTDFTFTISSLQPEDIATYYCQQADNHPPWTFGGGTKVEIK    0.5
Ab5 (antibody, V domains shown) VH: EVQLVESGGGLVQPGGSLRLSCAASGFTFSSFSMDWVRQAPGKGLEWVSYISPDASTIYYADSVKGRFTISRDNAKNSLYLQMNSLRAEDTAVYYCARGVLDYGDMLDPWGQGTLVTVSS VL: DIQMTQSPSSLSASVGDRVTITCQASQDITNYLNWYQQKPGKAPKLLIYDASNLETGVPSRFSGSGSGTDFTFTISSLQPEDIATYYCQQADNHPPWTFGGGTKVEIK    0.6
Ab4 (antibody, V domains shown) VH: EVQLVESGGGLVQPGGSLRLSCAASGFTFSSYSMNWVRQAPGKGLEWVSYISSSSSTIYYADSVKGRFTISRDNAKNSLYLQMNSLRAEDTAVYYCARGVLDYGDMLDPWGQGTLVTVSS VL: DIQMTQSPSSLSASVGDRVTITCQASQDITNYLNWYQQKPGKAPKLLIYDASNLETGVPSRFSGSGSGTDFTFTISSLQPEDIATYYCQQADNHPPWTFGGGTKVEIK    3.5

API: the following record is the query input.
Data request: IC50, reporter cell assay for Ab25 (antibody, V domains shown) VH: EVQLVESGGGLVQPGGSLRLSCAASGFTFGSFSMDWVRQAPGKGLEWVSYISPDASTIYYADSVKGRFTISRDNAKNSLYLQMNSLRAEDTAVYYCARGVLDYGDMLDPWGQGTLVTVSS VL: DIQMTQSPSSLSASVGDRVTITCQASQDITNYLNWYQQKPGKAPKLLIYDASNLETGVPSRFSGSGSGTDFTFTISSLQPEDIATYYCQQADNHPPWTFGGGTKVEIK ?
Data returned: 0.7
